system: TC28 cells; experiment: ATP assay (luciferase); assay type: cell-based; details: approximate; prevention of ATP depletion; NOC-12 challenge 250 μM; 1 h pretreatment, 24 h exposure; read-out: EC50 ATP Depletion, trigger Noc12
pEC50: −log10 of the molar value.
value.kind: pEC50

Param readout = pEC50; param system = TC28 cells; param query = Cc1cc(O)ccc1NC(N)=NC#N ; response: value
~7.00

---

test system: TC28 cells; assay: ATP assay (luciferase); assay type: cell-based; conditions: approximate; prevention of ATP depletion; SIN-1 challenge 100 μM; 1 h pretreatment, 24 h exposure; read-out: EC50 ATP Depletion, trigger Sin-1
value.kind: EC50

Which EC50 is reported with TC28 cells for this entry: Cc1cc(O)ccc1NC(N)=NC#N ?
~100 nM
